Reported % inhibition values follow for various substances
- Tested on: human Factor 11 mRNA
- Test Summary: Antisense inhibition of human Factor 11 in HepG2 cells, lipofectin, 75 nM (Example 1)
- Assay type: cell-based
- Details: 75 nM antisense oligonucleotide, ~24 h, relative to untreated control cells, gapmers targeted to SEQ ID NO: 2
Strand notation (5' to 3'): a small letter for the sugar, then the base; units joined by * are phosphorothioate-linked, units joined directly phosphodiester-linked; [ ] holds rarer units or linkages, { } end groups; capitals alone tell only the bases. e = 2'-O-(2-methoxyethyl) (MOE); [5mC] = 5-methylcytosine; d = 2'-deoxy (DNA)
Experimental Endpoint: % inhibition (%)

1) 413515 (antisense eG*eG*eT*eA*eT*d[5mC]*d[5mC]*dT*dG*dA*dG*dT*dG*dA*dG*eA*eT*e[5mC]*eT*eA) [compound 413515]	36
2) 413527 (antisense e[5mC]*e[5mC]*eA*eT*eA*dA*dT*dG*dA*dA*dG*dA*dA*dG*dG*eA*eA*eG*eG*eG) [compound 413527]	52
3) 413503 (antisense eA*eT*eA*e[5mC]*e[5mC]*dT*dA*dG*dT*dA*d[5mC]*dA*dA*dT*dG*eT*eA*eA*eA*eT) [compound 413503]	29
4) 413519 (antisense eA*eT*eG*eG*eA*dG*dA*d[5mC]*dA*dT*dT*d[5mC]*dA*dT*dT*eT*e[5mC]*e[5mC]*eA*e[5mC]) [compound 413519]	59
5) 413528 (antisense eT*eT*eA*eA*eG*dT*dT*dA*d[5mC]*dA*dT*dT*dG*dT*dA*eG*eA*e[5mC]*e[5mC]*eA) [compound 413528]	48
6) 413537 (antisense eA*eG*eA*eA*eA*dT*dA*dT*d[5mC]*d[5mC]*d[5mC]*d[5mC]*dA*dG*dA*e[5mC]*eA*eG*eA*eG) [compound 413537]	16
7) 413526 (antisense eG*eT*eA*eA*eA*dG*dT*dT*dT*dT*dA*d[5mC]*d[5mC]*dT*dT*eA*eA*e[5mC]*e[5mC]*eT) [compound 413526]	47
8) 413534 (antisense eT*eT*eT*eT*e[5mC]*d[5mC]*dA*dG*dA*dA*dG*dA*dG*dA*d[5mC]*eT*e[5mC]*eT*eT*e[5mC]) [compound 413534]	31
9) 413516 (antisense e[5mC]*e[5mC]*eA*eG*e[5mC]*dT*dA*dT*d[5mC]*dA*dG*dG*dA*dA*dA*eA*eT*eT*e[5mC]*e[5mC]) [compound 413516]	50
